System: pSTAT5/GM-CSF
measurementDescription: pSTAT5/GM-CSF cellular assay (JAK2 selectivity)
Format: cell-based
Reported values of IC50 for individual entries

Answered examples (2):
COCCOc1cc(Nc2cc(NC(C)=O)ncc2-c2ccn(C)n2)cc(S(C)(=O)=O)c1
> 10 µM
COc1ccc(-c2cnc(NC(C)=O)cc2Nc2cc(OCC3CC3)cc(S(C)(=O)=O)n2)nn1
> 10 µM

The molecule CC(=O)Nc1cc(Nc2cc(C3CCCOC3)cc(S(C)(=O)=O)n2)c(-c2ccc3c(n2)OCC(C)(C)O3)cn1 (stereo not shown) showed IC50 equal to 0.473 µM

# molecule `CC(=O)Nc1cc(Nc2cccc(S(C)(=O)=O)c2)c(-c2ccc(C(C)(C)O)cn2)cn1` ; its IC50 = > 10 µM

For `CC(=O)Nc1cc(Nc2cc(C)cc(S(C)(=O)=O)c2)c(-c2ccn(C)n2)cn1` the molecule record lists IC50 as > 10 µM

Short answer for `COCc1ccc(-c2cnc(NC(C)=O)cc2Nc2cc(OC)cc(S(C)(=O)=O)n2)nc1` : IC50 was > 10 µM

For reference, reported IC50 for `CC(=O)Nc1cc(Nc2cc(F)cc(S(C)(=O)=O)c2)c(-c2ccc(C(C)(C)O)cn2)cn1` stands at > 10 µM
